The reported measurements were obtained from patent US11638706B2.

- Tested on: Huntingtin protein (HTT)
- Assay Comment: Endogenous Huntingtin Protein Assay (MSD electrochemiluminescence ELISA; MW1 or MAB2166 capture, #5656S detection)
- Format: cell-based, human
pIC50: −log10 of the molar value.
Please provide measured pIC50 for the entries that follow.

Illustrative cases are given below, each with its answer.
[
  {
    "Molecule": "CN(c1ccc(-c2ccc(-n3ccnc3)cc2O)nn1)C1CC(C)(C)NC(C)(C)C1",
    "Value Measured": "≥ 7.00"
  },
  {
    "Molecule": "CC1(C)CC(Oc2ccc(-c3ccc(O)cc3O)nn2)CC(C)(C)N1",
    "Value Measured": "5.05 to 5.52"
  },
  {
    "Molecule": "CC1(C)CC(Oc2ccc(-c3ccc(-c4cn[nH]c4)cc3F)nn2)CC(C)(C)N1",
    "Value Measured": "5.52 to 6.00"
  },
  {
    "Molecule": "CC1CC(Oc2ccc(-c3ccc(-n4cccn4)cc3O)nn2)CC(C)N1 (stereo not drawn)",
    "Value Measured": "5.05 to 5.52"
  },
  {
    "Molecule": "CN(c1ccc(-c2ccc(-c3cn[nH]c3)cc2O)nn1)C1CC(C)(C)NC(C)(C)C1",
    "Value Measured": "≥ 7.00"
  },
  {
    "Molecule": "CC1(C)CC(Oc2ccc(-c3ccc(-n4cc(N)cn4)cc3O)nn2)CC(C)(C)N1",
    "Value Measured": "≥ 7.00"
  },
  {
    "Molecule": "CN(c1nnc(-c2ccc(-c3ccn(C)c(=O)c3)cc2O)s1)C1CC(C)(C)NC(C)(C)C1",
    "Value Measured": "≥ 7.00"
  },
  {
    "Molecule": "CN(c1ccc(-c2ccc(O)cc2F)nn1)C1CC(C)(C)NC(C)(C)C1",
    "Value Measured": "5.05 to 5.52"
  }
]

Provide pIC50 values for the following items, in order.
1. CC1(C)CC(Oc2ccc(-c3ccc(-c4cn[nH]c4)s3)nn2)CC(C)(C)N1
2. Oc1cc(-c2cn[nH]c2)ccc1-c1ccc(OC2CCNCC2)nn1
3. CN(c1ccc(-c2ccc(-c3cn[nH]c3)cc2F)nn1)C1CC(C)(C)NC(C)(C)C1
4. CC1(C)CC(Oc2ccc(-c3cc(F)c(-c4cn[nH]c4)cc3F)nn2)CC(C)(C)N1
5. COc1cc(-n2cc([N+](=O)[O-])cn2)ccc1-c1ccc(N(C)C2CC(C)(C)NC(C)(C)C2)nn1
6. CC1(C)CC(Oc2ccc(-c3ccc(-c4cn[nH]c4)cc3O)nn2)CC(C)(C)N1

Response line:
["5.05 to 5.52", "6.30 to 7.00", "5.05 to 5.52", "6.30 to 7.00", "≥ 7.00", "≥ 7.00"]

For each of the items listed, what is its pIC50?
1. CN(c1ccc(-c2ccc(-n3cc(N)cn3)cc2O)nn1)C1CC(C)(C)NC(C)(C)C1
2. Oc1cc(-c2cn[nH]c2)ccc1-c1ccc(C2=CCNCC2)nn1
3. CN(c1ccc(-c2ccc(-c3cn[nH]c3)c(F)c2F)nn1)C1CC(C)(C)NC(C)(C)C1
4. CN(c1ccc(-c2ccc3nn(C)cc3c2)nn1)C1CC(C)(C)NC(C)(C)C1

Response line:
1: 6.30 to 7.00; 2: 6.30 to 7.00; 3: 6.30 to 7.00; 4: 5.05 to 5.52
